These measurements were taken from patent US11981658B2.

target-desc: EGFR wildtype (WT) (Homo sapiens, UniProt P00533)
Sequence (P00533 25-1210): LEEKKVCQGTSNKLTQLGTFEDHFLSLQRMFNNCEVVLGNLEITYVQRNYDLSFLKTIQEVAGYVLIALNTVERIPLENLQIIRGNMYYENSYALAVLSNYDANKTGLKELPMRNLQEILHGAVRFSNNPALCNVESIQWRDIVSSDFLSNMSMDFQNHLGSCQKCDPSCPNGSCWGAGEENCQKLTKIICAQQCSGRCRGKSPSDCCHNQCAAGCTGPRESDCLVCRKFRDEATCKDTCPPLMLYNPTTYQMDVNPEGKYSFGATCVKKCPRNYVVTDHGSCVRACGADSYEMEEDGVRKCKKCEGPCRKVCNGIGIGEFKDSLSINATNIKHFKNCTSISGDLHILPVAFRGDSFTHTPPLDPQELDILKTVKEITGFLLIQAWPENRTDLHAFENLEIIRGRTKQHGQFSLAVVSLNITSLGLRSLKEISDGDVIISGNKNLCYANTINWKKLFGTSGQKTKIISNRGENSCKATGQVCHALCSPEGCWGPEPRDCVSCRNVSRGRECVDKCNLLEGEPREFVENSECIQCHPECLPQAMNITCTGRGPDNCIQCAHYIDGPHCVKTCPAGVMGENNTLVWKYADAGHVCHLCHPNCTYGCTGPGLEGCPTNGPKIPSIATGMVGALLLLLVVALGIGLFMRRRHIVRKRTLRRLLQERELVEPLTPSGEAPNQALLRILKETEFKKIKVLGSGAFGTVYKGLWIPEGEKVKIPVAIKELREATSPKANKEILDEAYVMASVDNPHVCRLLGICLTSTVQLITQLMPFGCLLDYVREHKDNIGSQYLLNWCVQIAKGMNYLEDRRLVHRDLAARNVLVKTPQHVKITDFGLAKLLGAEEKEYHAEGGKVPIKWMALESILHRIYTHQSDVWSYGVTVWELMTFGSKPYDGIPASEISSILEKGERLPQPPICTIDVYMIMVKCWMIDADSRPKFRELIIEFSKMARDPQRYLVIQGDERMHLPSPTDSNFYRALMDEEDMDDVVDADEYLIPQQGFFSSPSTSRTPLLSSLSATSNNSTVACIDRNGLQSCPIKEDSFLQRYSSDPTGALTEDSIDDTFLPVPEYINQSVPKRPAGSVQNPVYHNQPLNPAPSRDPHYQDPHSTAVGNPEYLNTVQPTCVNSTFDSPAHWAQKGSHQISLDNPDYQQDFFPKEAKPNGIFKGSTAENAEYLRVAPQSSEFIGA
test: Biochemical EGFR kinase inhibition assay (Lance Ultra TR-FRET), wildtype
test-parameters: Km ATP; read-out: IC50 WT (nM), Km ATP
Description: Biochemical EGFR kinase assays were conducted using Lance Ultra time-resolved fluorescence resonance energy transfer (TR-FRET) technology from Perkin-Elmer. […] Each kinase reactions were incubated at room temperature for 1 hour and then stopped by the addition of 4 μL of stop solution (10 mM EDTA). […] After 60 minutes incubation at room temperature the LANCE signal was measured on an EnVision Multilabel Reader (Perkin-Elmer). […]
metric: IC50 (nM)

Please review the following examples before continuing.
molecule: CC1OCCC1C#Cc1cnc(Nc2ccnc(-c3cnn(S(=O)(=O)C4CC4)c3)n2)cc1N1CCC(C)(O)CC1 (stereo not drawn)
readout-unit: nM
IC50: 11.4
//
molecule: CC1(CO)CCN(c2cc(Nc3ccnc(-c4cnn(S(=O)(=O)C5CC5)c4)n3)ncc2C#CC2(O)CCC2)CC1
readout-unit: nM
IC50: 44.2

(P) CC1(O)CCN(c2cc(Nc3ccnc(-c4cnn(S(=O)(=O)C5CC5)c4)n3)ncc2C#Cc2ncc(CN3CCOCC3)cn2)CC1
(Q) CS(=O)(=O)N1CCC(C#Cc2cnc(Nc3ccnc(-c4cnn(S(=O)(=O)C5CC5)c4)n3)cc2NCC2CCC(O)CC2)C1 (stereo not drawn)
(R) Cn1cc(C#Cc2cnc(Nc3ccnc(-c4cnn(S(=O)(=O)C5CC5)c4)n3)cc2N2CCC(F)(CNCCF)CC2)cn1
(S) O=S(=O)(C1CC1)n1cc(-c2nccc(Nc3cc(N[C@H]4CC[C@@H](O)CC4)c(C#CC4C[C@@H]5CC[C@@H]4O5)cn3)n2)cn1 (stereo partly drawn)
Order these by IC50, descending, and give the full ranking. List labels; respect the requested ordering.
Q, R, S, P
(Q: 294 nM, R: 40.8 nM, S: 12 nM, P: 7.5 nM)
